- Tested on: HIV
- method: Table 1 IC50 of the examples (assay method not given; patent concerns inhibiting HIV replication)
- Assay type: cell-based
- reported.conditions: Human immunodeficiency virus 1
measure: IC50 (µM)

| compound | system.tested | IC50 (µM) |
| --- | --- | --- |
| COc1cccc(C(=O)N2CCc3c2cc(C)c([C@H](OC(C)(C)C)C(=O)O)c3-c2cc(F)c3c(c2C)CCCO3)c1 (atropisomer, axis not shown) | HIV | 0.007 |

1: Cc1ccc(-c2c3c(cc(C)c2[C@H](OC(C)(C)C)C(=O)O)N(C(=O)C2CCCCC2)CC3)cc1
2: Cc1ccc(-c2c3c(cc(C)c2[C@H](OC(C)(C)C)C(=O)O)N(S(=O)(=O)C2CCCCC2)CC3)cc1
// returns 1 or 2 , whichever has the lower IC50 Could you answer with the label of the item you picked?
1
(1: 0.017 µM, 2: 11.4 µM)

a: Cc1ccc(-c2c3c(cc(C)c2C(OC(C)(C)C)C(=O)O)N(C(=O)Nc2ccc(F)cc2)CC3)cc1 (centres unmarked)
b: COc1cc(F)cc(C(=O)N2CCc3c2cc(C)c([C@H](OC(C)(C)C)C(=O)O)c3-c2cc(F)c3c(c2C)CCCO3)c1
c: COc1cccc(OC)c1C(=O)N1CCc2c1cc(C)c([C@H](OC(C)(C)C)C(=O)O)c2-c1cc(F)c2c(c1C)CCCO2 (atropisomer, axis not shown)
d: Cc1cc2c(c(-c3cc(F)c4c(c3C)CCCO4)c1[C@H](OC(C)(C)C)C(=O)O)CCN2C(=O)c1cccc(Cl)c1Cl (atropisomer, axis not shown)
Which order do these items take when sorted by rising IC50? List them. Form entry: labels listed in requested order.
b, d, c, a
(b: 0.003 µM, d: 0.006 µM, c: 0.055 µM, a: 3.01 µM)
